Below, each entry is listed alongside its reported cell viability.
- Tested on: SEM cells
- test_details: cell viability relative to DMSO control; higher = less cytotoxic
- conditions: RPMI 5 mM glucose + 10% FBS; 48 h; 0.0211 µM

molecule	subject_of_test	cell viability / %
CC(C)=CCC/C(C)=C/CC/C(C)=C/CC/C(C)=C/CC/C(C)=C/CC/C(C)=C/CC/C(C)=C/CC/C(C)=C/CC/C(C)=C/CO	SEM cells	96.9
O=C/1NC(=O)C(=C1C2=CN=C3C=CC=C[N]23)/C4=C[N]5CCN(CC6=C5C4=CC=C6)C(=O)N7CCOCC7	SEM cells	17.9
CC1(CN2CCC(n3c(=O)[nH]c4ccccc43)CC2)OCc2ccccc2-n2cccc21 (stereo not drawn)	SEM cells	111
O=C1CCC[C@@H]2[C@H]3CCCN4CCC[C@@H](CN12)[C@@H]34	SEM cells	82.4
NC(=O)[C@H]1CCS[C@@H]2C[C@]3(CCCN3C(=O)Cc3ccc(NC(=O)COc4ccc(Cl)cc4Cl)cc3)C(=O)N12	SEM cells	107
CN1C(=O)C(=C\C2=C1N=C(NC3=CC=CC(=C3)C(O)=O)N=C2)/C4=C(Cl)C=CC=C4Cl	SEM cells	114
CCn1c(-c2nonc2N)nc2c(C#CC(C)(C)O)ncc(OC[C@H]3CCCNC3)c21	SEM cells	94.1
CC1=C(/C=C/C(C)=C/C=C/C(C)=C\C(=O)O)C(C)(C)CCC1	SEM cells	112

----------
Below, each entry is listed alongside its reported cell viability.
- Test system: SEM cells
- test_details: cell viability relative to DMSO control; higher = less cytotoxic
- conditions: RPMI 5 mM glucose + 10% FBS; 48 h; 0.569 µM

compound	cell viability
NC[C@@H]1O[C@H](O[C@H]2[C@@H](O)[C@H](O[C@@H]3[C@@H](O)[C@H](N)C[C@H](N)[C@H]3O[C@H]3O[C@H](CN)[C@@H](O)[C@H](O)[C@H]3N)O[C@@H]2CO)[C@H](N)[C@@H](O)[C@@H]1O.O=S(=O)(O)O.O=S(=O)(O)O.O=S(=O)(O)O	101%
CCn1c(-c2nonc2N)nc2c(C#CC(C)(C)O)ncc(OC[C@H]3CCCNC3)c21	96.4%
C/C(=N\NC(=S)N1CCC1)c1ccccn1	5.22%
CC1(CN2CCC(n3c(=O)[nH]c4ccccc43)CC2)OCc2ccccc2-n2cccc21 (configuration not stated)	103%
CC(=O)N[C@@H]1[C@@H](NC(N)=N)\C=C(/O[C@H]1[C@H](O)[C@H](O)CO)C(O)=O	49.5%
CN1C(=O)C(=C\C2=C1N=C(NC3=CC=CC(=C3)C(O)=O)N=C2)/C4=C(Cl)C=CC=C4Cl	90.9%
C=C1C(=O)[C@@]23C(CC[C@@H]1[C@H]2O)[C@@]12CO[C@]3(O)[C@@H](O)[C@@H]1C(C)(C)CC[C@@H]2O (some centres not stated)	86.7%
CC(C)N(C[C@H]1O[C@@H](n2cnc3c(N)ncnc32)[C@H](O)[C@@H]1O)[C@H]1C[C@@H](CCc2nc3cc(C(C)(C)C)ccc3[nH]2)C1	102%
C[C@@H]1CCN(C(=O)CC#N)C[C@@H]1N(C)c1ncnc2[nH]ccc12	99.3%
CC\12CCC(=O)\C=C1CCC3C2CCC4(C)C3CCC4(O)C#C (configuration not stated)	95.7%
O=C(CCCCCCC(=O)Nc1cccnc1)NO	97.5%
C[C@@H](NCCCc1cccc(C(F)(F)F)c1)c1cccc2ccccc12	116%
CCCC(C)(COC(N)=O)COC(=O)NC(C)C (configuration not stated)	147%
CO[C@@]12[C@H](COC(N)=O)C/3=C(N1C[C@@H]4N[C@H]24)/C(=O)/C(=C(N)\C3=O)C	75.5%
CC(NC(C)(C)C)C(=O)c1cccc(Cl)c1 (configuration not stated)	127%
CCc1cc(C(N)=S)ccn1	102%
COc1cc([C@@H](CC(=O)O)c2ccc(C)c(CN3C[C@@H](C)Oc4ccccc4[S+]3(=O)[O-])c2)cc2nnn(C)c12	83.7%
